Reference source for all entries: ChEMBL document CHEMBL4673247

target: Inosine-5'-monophosphate dehydrogenase (Cryptosporidium parvum, UniProt Q8T6T2)
Sequence (Q8T6T2 whole entry): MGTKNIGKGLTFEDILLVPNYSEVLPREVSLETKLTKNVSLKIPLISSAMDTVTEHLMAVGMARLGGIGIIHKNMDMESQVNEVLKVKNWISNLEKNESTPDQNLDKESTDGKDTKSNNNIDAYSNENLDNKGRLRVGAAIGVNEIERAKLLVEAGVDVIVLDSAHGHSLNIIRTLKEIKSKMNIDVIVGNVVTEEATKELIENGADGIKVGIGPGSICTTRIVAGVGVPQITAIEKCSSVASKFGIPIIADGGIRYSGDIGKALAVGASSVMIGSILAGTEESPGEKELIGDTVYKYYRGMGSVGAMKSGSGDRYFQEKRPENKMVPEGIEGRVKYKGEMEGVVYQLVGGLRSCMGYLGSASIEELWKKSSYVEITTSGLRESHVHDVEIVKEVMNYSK
pKi: −log10 of the molar value.
Assign MET whenever pKi does not fall below 7; assign NOT MET whenever it does.

{"columns": ["molecule", "qualitative.label"],
 "data": [
  ["COc1c(C)c2c(c(O)c1CCC(C)CCC(=O)Nc1ccc(Cl)c(C(F)(F)F)c1)C(=O)OC2 (configuration not stated)", "MET"],
  ["COc1c(C)c2c(c(O)c1C/C=C(\\C)CCC(=O)Nc1ccc(Cl)cc1)C(=O)OC2", "MET"],
  ["COc1c(C)c2c(c(OC)c1C/C=C(\\C)CCC(=O)Nc1ccc(Cl)c(C(F)(F)F)c1)C(=O)OC2", "NOT MET"],
  ["COc1c(C)c2c(c(O)c1C/C=C(\\C)CCC(=O)Nc1ccc(Cl)c(Cl)c1)C(=O)OC2", "MET"],
  ["COc1c(C)c2c(c(O)c1C/C=C(\\C)CCC(=O)N(C)c1ccc(Cl)cc1)C(=O)OC2", "NOT MET"],
  ["COc1c(C)c2c(c(O)c1C/C=C(\\C)CCC(=O)Nc1ccc(Cl)c(C(F)(F)F)c1)C(=O)OC2", "MET"]
]}

###

target: Inosine-5'-monophosphate dehydrogenase 2 (Homo sapiens, UniProt P12268)
pKi: −log10 of the molar value.
readout: pKi

{"columns": ["item.smiles", "numeric.result"],
 "data": [
  ["COc1c(C)c2c(c(O)c1C/C=C(\\C)CCC(=O)Nc1ccc(Cl)c(Cl)c1)C(=O)OC2", 6.47]
]}
